# Experimental system: A型インフルエンザウィルス亜型H1N1(A/Puerto Rico/8/1934)の核内タンパク質(NP抗原) (Influenza A virus H1N1 (A/Puerto …, UniProt P03466 1-498))
# Sequence (P03466 whole entry): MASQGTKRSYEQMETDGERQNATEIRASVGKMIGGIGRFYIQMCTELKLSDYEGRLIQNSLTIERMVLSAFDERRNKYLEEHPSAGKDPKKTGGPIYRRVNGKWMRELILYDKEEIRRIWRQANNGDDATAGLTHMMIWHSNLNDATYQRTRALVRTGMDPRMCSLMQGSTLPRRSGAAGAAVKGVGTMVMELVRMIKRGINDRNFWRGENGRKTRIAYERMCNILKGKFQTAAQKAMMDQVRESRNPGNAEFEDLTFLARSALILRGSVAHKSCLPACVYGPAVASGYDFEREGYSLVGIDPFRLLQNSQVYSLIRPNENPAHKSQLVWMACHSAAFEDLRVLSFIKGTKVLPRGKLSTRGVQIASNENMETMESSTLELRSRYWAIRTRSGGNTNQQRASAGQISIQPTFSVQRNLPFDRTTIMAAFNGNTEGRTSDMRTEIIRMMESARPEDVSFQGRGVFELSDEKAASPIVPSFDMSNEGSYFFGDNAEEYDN
# Assay notes: sandwich ELISA, […] (capture) […]
Measure: binding result

抗体A1 (VHH antibody having the amino acid sequence of SEQ ID NO: 1) (VHH) VHH: QLQLVESGGGLVQAGGSLRLSCAASGSAFSLYAMGWHRQAPGKQRELVAYITNGDITNYADSVQGRVIISRDNAKNTVYLHMNSLKPEDTAVYYCYAVGGRTFWGQGTQVTVSS: binds
抗体A4 (VHH antibody having the amino acid sequence of SEQ ID NO: 4) (VHH) VHH: EVQLVESGGGLVQAGDSLRLSCAASGRTFINLDMGWFRQPPGKEREYVAAITRNGAITSYADSAKGRFTISRDNAKNTVSLEMNSLKPEDTGVYYCAAYSISNYGSGWYKPDYWGQGAQVTVSS: binds
抗体A2 (VHH antibody having the amino acid sequence of SEQ ID NO: 2) (VHH) VHH: QVQLVESGGGLVQTGGPLRLSCAVSDRTDSNYAMGWFRQAPGKEREFVAAISGTGYVTGYADSARNRFTLSRDNGKNAVYLQMNSLEPADTAVYYCAATSDQRYPGPRSSGYDYWGQGTQVTVSS: binds
抗体A3 (VHH antibody having the amino acid sequence of SEQ ID NO: 3) (VHH) VHH: EVQLVESGGGLVQPGGSLSLSCAASGFTFSNYYMGWFRQAPGKERQSLATVNSGGTGEAYADSIRGRFTISRDNAKNTVTLQMSSLQPEDTAVYYCARVDGRVLSTIVVSYDYWGQGTQVTVSS: binds
